The entries below come with measured boiling point values attached.
Supply the numeric figure in °C, leaving out any unit text.

These recorded examples may help you get a feel for the data.
{"molecule": "CC(CCl)CBr (stereo unspecified)", "output_unit": "°C", "boiling point": 155}
{"molecule": "CN=C=S", "output_unit": "°C", "boiling point": 119}
{"molecule": "CCCCOC(=O)C(=O)OCCCC", "output_unit": "°C", "boiling point": 241}
{"molecule": "C=C1CCC(C)CC1", "output_unit": "°C", "boiling point": 122}
{"molecule": "CCCl", "output_unit": "°C", "boiling point": 12.3}

Task: State the recorded boiling point for this entry: "O=S1CCCC1"
Output: 236

Task: Input "CCCCCCCCCCCCN"
Output: 259

Task: Input "CCCCCCCC(=O)OCCC"
Output: 226

Task: Input "CC1(C)CCCC(C)(C)N1"
Output: 156

Task: Input CCCC(C)C(C)=O (stereo unspecified)
Output: 144

Task: Input "CCCCc1cccs1"
Output: 182

Task: Input OC1CCCCC1c1ccccc1 (stereo unspecified)
Output: 228

Task: Input "FC(F)Cl"
Output: -40.7

###

Cut-off 70 °C on melting point, inclusive. At or above means t; below means f.

{"compound": "O=CC1CC=CCC1 (stereo unspecified)", "assigned_label": "f"}
{"compound": "CC(C)=CCCC(C)CC(=O)O (stereo unspecified)", "assigned_label": "t"}
{"compound": "Clc1ccc(Br)c(Cl)c1", "assigned_label": "f"}
{"compound": "CCCCCCC1CCCCC1", "assigned_label": "f"}
{"compound": "NC(=O)Nc1ccc(Br)cc1", "assigned_label": "t"}

Task: Kindly determine if melting point recorded for "CC1=C(c2ccccc2)C(=O)N(C(C)(C)c2cc(Cl)cc(Cl)c2)CO1" is above or exactly 70 °C.
Output: t

Task: Input "SCCS"
Output: f

Task: Input CCC(Oc1ccccc1)C(=O)O (stereo unspecified)
Output: t

Task: Input CC1CC(C)CC(O)C1 (stereo unspecified)
Output: f

Task: Input "Cc1ccc([N+](=O)[O-])cc1Cl"
Output: f

Task: Input "CC(C)Cc1ccc(CC(=O)O)cc1"
Output: t

Task: Input "c1ccc2cc3cc4ccccc4cc3cc2c1"
Output: t

Task: Input "CCCN(CCC)c1c([N+](=O)[O-])cc(C(F)(F)F)c(N)c1[N+](=O)[O-]"
Output: t

Task: Input "CCCCCCCCSCCO"
Output: f

Task: Input "CC1(C)C(O)=CC(=O)C=C1O"
Output: t

###

readout_type: boiling point (°C)
Supply the numeric figure in °C, leaving out any unit text.

These recorded examples may help you get a feel for the data.
{"compound": "CCCCc1ccccc1", "output_unit": "°C", "measurement": 183}
{"compound": "Cc1ccc(C)o1", "output_unit": "°C", "measurement": 93.5}
{"compound": "c1ccc(Cc2ccc3ccccc3c2)cc1", "output_unit": "°C", "measurement": 350}
{"compound": "CCOC(=O)C(C(=O)OCC)=C(C)C", "output_unit": "°C", "measurement": 176}
{"compound": "CCCCCCCC[Si](Cl)(Cl)Cl", "output_unit": "°C", "measurement": 232}

Would you kindly look at the next entry?
Task: State the recorded boiling point for this entry: "CC(C)C(C)(C)C"
Output: 80.8
